These entries and their values trace back to patent US20220288052A1.

- experiment description: Bioavailability study in dog
- Type: in vivo
- experimental parameters: plasma, po; Male beagle dog, 2.5 mg/kg p.o.
observation type: Cmax (ng/mL)
Kindly answer with a numeric value in ng/mL, unit omitted.

[ask] Which Cmax is reported for this molecule? O=c1ccc2ccc(O[C@@H]3C[C@H]4CC[C@@H](C3)N4)cc2o1
[reply] 418

----------
- experiment description: Exposure and tissue distribution after 14 days repeat dosing, mouse
- Type: in vivo
- experimental parameters: mouse, in vivo, po; Male mice, 90 mg/kg p.o. 14 days, 2 h post last dose; read-out: Liver/plasma ratio
observation type: Kp at 2 h

[ask] Given O=c1ccc2ccc(O[C@@H]3C[C@H]4CC[C@@H](C3)N4)cc2o1 , state its recorded Kp at 2 h.
[reply] 16

----------
- experiment description: Exposure and tissue distribution after 14 days repeat dosing, mouse
- Assay type: in vivo
- experimental parameters: NMRI, mouse, plasma, po; Male mice, 15 mg/kg p.o. 14 days, 2 h post last dose; read-out: Plasma concentration
observation type: concentration at 2 h (ng/mL)
I only need the number, in ng/mL, no unit after it.

[ask] Sample O=c1ccc2ccc(O[C@@H]3C[C@H]4CC[C@@H](C3)N4)cc2o1 [Compound (I)] — what was its concentration at 2 h?
[reply] 289

----------
- system name: NA transporter (Homo sapiens)
- Sequence (P23975 whole entry): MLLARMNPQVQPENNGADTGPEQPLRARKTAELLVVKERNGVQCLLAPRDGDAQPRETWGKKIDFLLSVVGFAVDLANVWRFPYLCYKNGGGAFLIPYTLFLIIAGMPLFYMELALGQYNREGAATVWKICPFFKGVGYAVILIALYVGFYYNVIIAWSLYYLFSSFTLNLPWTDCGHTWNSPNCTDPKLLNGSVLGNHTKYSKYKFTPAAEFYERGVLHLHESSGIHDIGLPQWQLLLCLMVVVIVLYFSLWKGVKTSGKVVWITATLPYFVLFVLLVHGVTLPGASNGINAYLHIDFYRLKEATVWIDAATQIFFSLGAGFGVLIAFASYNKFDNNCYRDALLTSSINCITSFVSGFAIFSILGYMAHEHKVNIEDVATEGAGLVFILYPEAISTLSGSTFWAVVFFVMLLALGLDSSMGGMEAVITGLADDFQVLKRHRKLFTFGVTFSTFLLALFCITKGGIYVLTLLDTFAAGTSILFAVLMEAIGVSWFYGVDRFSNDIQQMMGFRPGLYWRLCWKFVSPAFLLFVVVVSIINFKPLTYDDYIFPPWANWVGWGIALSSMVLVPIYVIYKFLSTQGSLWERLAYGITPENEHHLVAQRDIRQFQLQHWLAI
- experiment description: ^3H-uptake human, NA transporter
- Type: biochemical
observation type: Ki (nM)
Numeric answer only, unit nM assumed.

[ask] Query (compound): O=c1ccc2ccc(O[C@@H]3C[C@H]4CC[C@@H](C3)N4)cc2o1 ; field requested: Ki
[reply] 50.1

----------
- experiment description: Exposure and tissue distribution after 14 days repeat dosing, rat
- Type: in vivo
- experimental parameters: Wistar, rat, plasma, sc; Female rats, 15 mg/kg s.c. 14 days, 2 h post last dose; read-out: Plasma concentration
observation type: concentration at 2 h (ng/mL)
Field: numeric (ng/mL). Do not append units.

[ask] Item O=c1ccc2ccc(O[C@@H]3C[C@H]4CC[C@@H](C3)N4)cc2o1 has what recorded concentration at 2 h?
[reply] 281

----------
- experiment description: Bioavailability study in dog
- Type: in vivo
- experimental parameters: plasma, iv; Female beagle dog, 0.5 mg/kg i.v.; read-out: AUC(0-∞) i.v.
observation type: AUC(0-inf) (ng·h/mL)
Numbers only; they are read as ng·h/mL.

[ask] Need AUC(0-inf) of O=c1ccc2ccc(O[C@@H]3C[C@H]4CC[C@@H](C3)N4)cc2o1 [Compound (I)] , thanks.
[reply] 194

----------
- experiment description: Bioavailability study in dog
- Format: in vivo
- experimental parameters: plasma, iv; Male beagle dog, 0.5 mg/kg i.v.; read-out: AUC(0-∞) i.v.
observation type: AUC(0-inf) (ng·h/mL)
I only need the number, in ng·h/mL, no unit after it.

[ask] Which AUC(0-inf) reading was recorded for the molecule O=c1ccc2ccc(O[C@@H]3C[C@H]4CC[C@@H](C3)N4)cc2o1 ?
[reply] 343

----------
- System: plasma protein
- experiment description: Plasma protein binding by equilibrium dialysis, mouse
- Type: in vitro ADME
- Experimental: The plasma protein binding was tested in rat, mouse, dog and human plasma by equilibrium dialysis. The plasma protein binding of this compound is remarkably low (Table 24).
observation type: fraction unbound at 2710 ng/ml
Please reply with the number alone, leaving off any unit.

[ask] Entry under review: O=c1ccc2ccc(O[C@@H]3C[C@H]4CC[C@@H](C3)N4)cc2o1 . Reported fraction unbound at 2710 ng/ml?
[reply] 0.747

----------
- experiment description: Exposure and tissue distribution after 14 days repeat dosing, rat
- Format: in vivo
- experimental parameters: Wistar, rat, brain, sc; Male rats, 10 mg/kg s.c. 14 days, 2 h post last dose; read-out: Brain concentration
observation type: concentration at 2 h (ng/g)
State just the number; it will be interpreted in ng/g.

[ask] What concentration at 2 h value was documented for this compound, O=c1ccc2ccc(O[C@@H]3C[C@H]4CC[C@@H](C3)N4)cc2o1 ?
[reply] 1380

----------
- experiment description: Bioavailability study in dog
- Type: in vivo
- experimental parameters: plasma, iv; Male beagle dog, 0.5 mg/kg i.v.; read-out: T½ i.v. (converted)
- Protocol: A bioavailability study was also conducted in dogs. […] The i.v. dose, which was given 7 days later, was chosen as 0.5 mg/kg in order to prevent observable CNS effects. The difference between the p.o. and the i.v. dose might overestimate the bioavailability to a certain extent. […] T½ is in the same range in the two dogs and after both p.o. and i.v. administration (1.4-1.7 h).
observation type: half-life (h)
Report as a plain number; the unit h is understood.

[ask] Can you look up the measured half-life of O=c1ccc2ccc(O[C@@H]3C[C@H]4CC[C@@H](C3)N4)cc2o1 [Compound (I)] for me?
[reply] 1.6

----------
- experiment description: Tissue distribution after single dose, mouse
- Format: in vivo
- experimental parameters: female, NMRI, po; Plasma, mouse 10 mg/kg p.o.; read-out: AUC(0-24 h)
observation type: AUC(0-t) (ng·h/mL)
Numbers only here, please. The scale is ng·h/mL.

[ask] Which measured AUC(0-t) value corresponds to O=c1ccc2ccc(O[C@@H]3C[C@H]4CC[C@@H](C3)N4)cc2o1 [Compound (I)] ?
[reply] 2220

----------
- system name: SERT (Homo sapiens, UniProt P31645)
- Sequence (P31645 whole entry): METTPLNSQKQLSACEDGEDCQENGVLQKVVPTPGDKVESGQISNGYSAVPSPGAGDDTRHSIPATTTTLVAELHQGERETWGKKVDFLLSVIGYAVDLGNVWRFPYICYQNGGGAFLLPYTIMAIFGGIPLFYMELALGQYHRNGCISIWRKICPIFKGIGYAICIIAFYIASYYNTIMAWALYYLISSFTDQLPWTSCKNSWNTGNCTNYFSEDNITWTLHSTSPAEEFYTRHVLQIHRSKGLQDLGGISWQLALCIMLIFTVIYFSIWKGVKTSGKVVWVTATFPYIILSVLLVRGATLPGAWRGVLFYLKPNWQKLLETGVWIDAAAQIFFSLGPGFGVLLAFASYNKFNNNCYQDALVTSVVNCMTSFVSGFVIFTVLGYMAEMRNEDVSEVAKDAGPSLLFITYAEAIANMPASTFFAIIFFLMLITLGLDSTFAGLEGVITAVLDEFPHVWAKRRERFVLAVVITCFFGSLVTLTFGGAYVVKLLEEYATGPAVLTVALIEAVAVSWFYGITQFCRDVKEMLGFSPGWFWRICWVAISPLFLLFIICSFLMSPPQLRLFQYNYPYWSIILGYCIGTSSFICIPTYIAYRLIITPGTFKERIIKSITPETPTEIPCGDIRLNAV
observation type: Ki (pM)
State the answer as a number, implicitly in pM.

[ask] Could you tell me which Ki is on file for O=c1ccc2ccc(O[C@@H]3C[C@H]4CC[C@@H](C3)N4)cc2o1 [Compound (I)] ?
[reply] 370
